system-name: human melanocortin 1 receptor (human) (UniProt Q01726)
Sequence (Q01726 whole entry): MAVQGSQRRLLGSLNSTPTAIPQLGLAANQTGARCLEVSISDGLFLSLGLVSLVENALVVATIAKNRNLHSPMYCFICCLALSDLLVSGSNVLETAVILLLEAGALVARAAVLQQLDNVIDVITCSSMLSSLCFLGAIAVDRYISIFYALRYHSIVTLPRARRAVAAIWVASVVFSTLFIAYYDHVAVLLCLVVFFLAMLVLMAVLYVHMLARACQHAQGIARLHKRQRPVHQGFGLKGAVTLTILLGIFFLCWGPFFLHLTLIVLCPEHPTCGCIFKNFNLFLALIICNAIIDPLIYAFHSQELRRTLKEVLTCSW
assay-protocol: time-resolved lanthanide fluorescence competitive binding vs Eu-labeled NDP-alpha-MSH; 10% ligand loading
pKi: −log10 of the molar value. Square brackets hold non-standard residues; d marks the D form. * marks the point of attachment. Butanoyl(4-Ph) = O=C(CCCc1ccccc1)*; Butanoyl(4-ethynyl) = C#CCCCC(=O)*
Entries and their pKi
parameter-measured: pKi

1) {Butanoyl(4-Ph)}-H[dF]RWGK(Butanoyl(4-ethynyl))-NH2 (peptide, part only; not given: crosslinked triblock polymer, part only, also: Fe(III)-crosslinked micelle)
8.54
2) {Butanoyl(4-Ph)}-H[dF]RWGK(Butanoyl(4-ethynyl))-NH2 (peptide, part only; not given: uncrosslinked triblock polymer, part only, also: uncrosslinked micelle)
7.92
